tested on: 782815-120-R-J1-PDC complex spheroid viability; assay: Anticancer human tumor 782815-120-R-J1-PDC patient-derived colon adenocarcinoma cell line growth inhibition [RAS]; settings: curve of first compound; second compound 0.00949 µM
Please respond with reported IC50 for every item in the list.

Prompt line: Need IC50, item CC1(O)CCCC1n1c(=O)c(C(F)F)cc2cnc(NC3CCN(S(C)(=O)=O)CC3)nc21 (centres undefined) + CCn1c(-c2cc(N3CCN(C)CC3)cnc2C(C)OC)c2c3cc(ccc31)-c1csc(n1)CC(NC(=O)C1CC1C)C(=O)N1CCCC(N1)C(=O)OCC(C)(C)C2
Response line: < 31.6 nM

Prompt line: Name the reported IC50 value associated with the molecule Cc1nc(N2CCC3(CC2)COC(C)C3N)c(CO)nc1Sc1ccnc(N)c1Cl (centres undefined) + CCn1c(-c2cccnc2C(C)OC)c2c3cc(ccc31)N1CCOC(CC(NC(=O)C(C(C)C)N(C)C(=O)C3(F)CCN(C(=O)C#CC(C)(C)N(C)C)CC3)C(=O)N3CCCC(N3)C(=O)OCC(C)(C)C2)C1
Response line: > 10000 nM

Prompt line: Please look up its IC50: NC1c2ccccc2OC12CCN(c1cnc3c(N4CCCc5ncccc54)n[nH]c3n1)CC2 (centres undefined) + CCn1c(-c2cc(N3CCN(C)CC3)cnc2C(C)OC)c2c3cc(ccc31)-c1csc(n1)CC(NC(=O)C1CC1C)C(=O)N1CCCC(N1)C(=O)OCC(C)(C)C2
Response line: < 31.6 nM

Prompt line: Entry C=CC(=O)N1CCN(c2nc(OCC3CCCN3C)nc3c(F)c(-c4nc(N)cc(C)c4C(F)(F)F)c(Cl)cc23)C(C)C1 (centres undefined) + CCn1c(-c2cccnc2C(C)OC)c2c3cc(ccc31)N1CCOC(CC(NC(=O)C(C(C)C)N(C)C(=O)C3(F)CCN(C(=O)C#CC(C)(C)N(C)C)CC3)C(=O)N3CCCC(N3)C(=O)OCC(C)(C)C2)C1 : reported IC50 = ?
Response line: > 1000 nM

----------
Tested on: 782815-120-R-J1-PDC complex spheroid viability
Assay: Anticancer human tumor 782815-120-R-J1-PDC cell line growth inhibition [RAS];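 note: spheroids exposed to compounds for 7 days before reading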;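 for viability, T/C: 100% = DMSO vehicle control viability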
Details: second compound 0.0949 µM; first compound 10 µM; stronger effect = lower value
Text: RAS pathway inhibitors in Combinations in Complex Spheroids A high-throughput screen of multi-cell type tumor spheroids was designed to identify active combinations of RAS pathway inhibitors and targeted small molecules. Complex spheroids include a stromal component modeled by human endothelial cells (HUVEC) and fibroblasts modeled by human mesenchymal stem cells (MSCs). […] Compounds. […] If the clinical Cmax for an agent had not been determined, the highest concentration tested was 10 microM. […]
Hi there, I'd appreciate the recorded viability, T/C for every entry that follows.
# unit: % | format: bare number

Prompt line: Endpoint output: viability, T/C of CC(=O)OC12COC1CC(O)C1(C)C(=O)C(O)C3=C(C)C(OC(=O)C(O)C(NC(=O)OC(C)(C)C)c4ccccc4)CC(O)(C(OC(=O)c4ccccc4)C21)C3(C)C (stereo not drawn) + CCn1c(-c2cc(N3CCN(C)CC3)cnc2C(C)OC)c2c3cc(ccc31)-c1csc(n1)CC(NC(=O)C1CC1C)C(=O)N1CCCC(N1)C(=O)OCC(C)(C)C2 . Value?
Response line: 11.3

Prompt line: Request the reported viability, T/C associated with CC(=O)OC12COC1CC(O)C1(C)C(=O)C(O)C3=C(C)C(OC(=O)C(O)C(NC(=O)OC(C)(C)C)c4ccccc4)CC(O)(C(OC(=O)c4ccccc4)C21)C3(C)C (stereo not drawn) + CCn1c(-c2cccnc2C(C)OC)c2c3cc(ccc31)N1CCOC(CC(NC(=O)C(C(C)C)N(C)C(=O)C3(F)CCN(C(=O)C#CC(C)(C)N(C)C)CC3)C(=O)N3CCCC(N3)C(=O)OCC(C)(C)C2)C1
Response line: 26.7

Prompt line: Would you mind telling me what viability, T/C value was observed for CC1(O)CCCC1n1c(=O)c(C(F)F)cc2cnc(NC3CCN(S(C)(=O)=O)CC3)nc21 (stereo not drawn) + CCn1c(-c2cc(N3CCN(C)CC3)cnc2C(C)OC)c2c3cc(ccc31)-c1csc(n1)CC(NC(=O)C1CC1C)C(=O)N1CCCC(N1)C(=O)OCC(C)(C)C2 ?
Response line: 5.05

----------
system: 782815-120-R-J1-PDC complex spheroid viability; assay: Anticancer human tumor 782815-120-R-J1-PDC cell line growth inhibition [RAS]; conditions: second compound 0.00316 µM; first compound 0.316 µM; stronger effect = lower value;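 note: spheroids exposed to compounds for 7 days before reading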;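 for viability, T/C: 100% = DMSO vehicle control viability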
// returns False unless viability, T/C is strictly below 90%, in which case True

Prompt line: Regarding Cc1nc(N2CCC3(CC2)COC(C)C3N)c(CO)nc1Sc1ccnc(N)c1Cl (configuration not stated) + C=CC(=O)N1CCN(c2nc(OCC3CCCN3C)nc3c(F)c(-c4nc(N)cc(C)c4C(F)(F)F)c(Cl)cc23)C(C)C1 , kindly confirm whether its viability, T/C is beneath 90%.
Response line: False

Prompt line: is_below(viability, T/C, 90%) for C=CC(=O)Nc1cc(Nc2nccc(-c3cn(C)c4ccccc34)n2)c(OC)cc1N(C)CCN(C)C + C=CC(=O)N1CCN(c2nc(OCC3CCCN3C)nc3c(F)c(-c4nc(N)cc(C)c4C(F)(F)F)c(Cl)cc23)C(C)C1 ?
Response line: False

Prompt line: Just wondering, is viability, T/C of CCC(CC)c1cc(NC2CCC(N)C2)n2nccc2n1 (configuration not stated) + C=CC(=O)N1CCN(c2nc(OCC3CCCN3C)nc3c(F)c(-c4nc(N)cc(C)c4C(F)(F)F)c(Cl)cc23)C(C)C1 below 90%?
Response line: False

Prompt line: Identify whether the compound CC(C)NCC(C(=O)N1CCN(c2ncnc3c2C(C)CC3O)CC1)c1ccc(Cl)cc1 (configuration not stated) + C=CC(=O)N1CCN(c2nc(OCC3CCCN3C)nc3c(F)c(-c4nc(N)cc(C)c4C(F)(F)F)c(Cl)cc23)C(C)C1 records viability, T/C below 90%.
Response line: False

Prompt line: Threshold test, viability, T/C < 90%: Nc1ccn(C2OC(CO)C(O)C2(F)F)c(=O)n1 (configuration not stated) + C=CC(=O)N1CCN(c2nc(OCC3CCCN3C)nc3c(F)c(-c4nc(N)cc(C)c4C(F)(F)F)c(Cl)cc23)C(C)C1
Response line: True

Prompt line: A record lists C[C@@H](NC(=O)c1ncnc(N)c1Cl)c1ncc(C(=O)Nc2cc(C(F)(F)F)c(Cl)cn2)s1 + C=CC(=O)N1CCN(c2nc(OCC3CCCN3C)nc3c(F)c(-c4nc(N)cc(C)c4C(F)(F)F)c(Cl)cc23)C(C)C1 . Is its viability, T/C below 90%?
Response line: False

Prompt line: Determine if CC(=O)OC12COC1CC(O)C1(C)C(=O)C(O)C3=C(C)C(OC(=O)C(O)C(NC(=O)OC(C)(C)C)c4ccccc4)CC(O)(C(OC(=O)c4ccccc4)C21)C3(C)C (configuration not stated) + C=CC(=O)N1CCN(c2nc(OCC3CCCN3C)nc3c(F)c(-c4nc(N)cc(C)c4C(F)(F)F)c(Cl)cc23)C(C)C1 shows viability, T/C strictly lower than 90%.
Response line: True

Prompt line: Given the entry O=C(c1ccc(F)c(F)c1Nc1ccc(I)cc1F)N1CC(O)([C@@H]2CCCCN2)C1 + C=CC(=O)N1CCN(c2nc(OCC3CCCN3C)nc3c(F)c(-c4nc(N)cc(C)c4C(F)(F)F)c(Cl)cc23)C(C)C1 , would its reported viability, T/C be below 90%?
Response line: True

Prompt line: Problem: For the compound CCN1CCN(Cc2ccc(Nc3ncc(F)c(-c4cc(F)c5nc(C)n(C(C)C)c5c4)n3)nc2)CC1 + C=CC(=O)N1CCN(c2nc(OCC3CCCN3C)nc3c(F)c(-c4nc(N)cc(C)c4C(F)(F)F)c(Cl)cc23)C(C)C1 , is viability, T/C under 90%?
Response line: False

Prompt line: In plain terms, does CC1(O)CCCC1n1c(=O)c(C(F)F)cc2cnc(NC3CCN(S(C)(=O)=O)CC3)nc21 (configuration not stated) + C=CC(=O)N1CCN(c2nc(OCC3CCCN3C)nc3c(F)c(-c4nc(N)cc(C)c4C(F)(F)F)c(Cl)cc23)C(C)C1 come in under 90% for viability, T/C?
Response line: True

Prompt line: I wonder whether NC1c2ccccc2OC12CCN(c1cnc3c(N4CCCc5ncccc54)n[nH]c3n1)CC2 (configuration not stated) + C=CC(=O)N1CCN(c2nc(OCC3CCCN3C)nc3c(F)c(-c4nc(N)cc(C)c4C(F)(F)F)c(Cl)cc23)C(C)C1 has viability, T/C below 90%. Can you tell?
Response line: False

----------
test system: 782815-120-R-J1-PDC complex spheroid viability; assay: Anticancer human tumor 782815-120-R-J1-PDC cell line growth inhibition [RAS]; conditions: second compound 0.00949 µM; first compound 0.00949 µM; stronger effect = lower value;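 note: spheroids exposed to compounds for 7 days before reading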;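 for viability, T/C: 100% = DMSO vehicle control viability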
Quantity: viability, T/C (%)
Report the value in % with no unit label.

Prompt line: // query viability, T/C value for entry CCc1c2c(nc3ccc(O)cc13)-c1cc3c(c(=O)n1C2)COC(=O)[C@]3(O)CC + CCn1c(-c2cccnc2C(C)OC)c2c3cc(ccc31)N1CCOC(CC(NC(=O)C(C(C)C)N(C)C(=O)C3(F)CCN(C(=O)C#CC(C)(C)N(C)C)CC3)C(=O)N3CCCC(N3)C(=O)OCC(C)(C)C2)C1
Response line: 22.6

Prompt line: Name the recorded viability, T/C for CCc1c2c(nc3ccc(O)cc13)-c1cc3c(c(=O)n1C2)COC(=O)[C@]3(O)CC + CCn1c(-c2cc(N3CCN(C)CC3)cnc2C(C)OC)c2c3cc(ccc31)-c1csc(n1)CC(NC(=O)C1CC1C)C(=O)N1CCCC(N1)C(=O)OCC(C)(C)C2 .
Response line: 15.4

Prompt line: Entry CC1(C)CCC(Nc2ncc(C(F)(F)F)c(-c3c[nH]c4c(P(C)(C)=O)c(C#N)ccc34)n2)CN1 (centres undefined) + CCn1c(-c2cc(N3CCN(C)CC3)cnc2C(C)OC)c2c3cc(ccc31)-c1csc(n1)CC(NC(=O)C1CC1C)C(=O)N1CCCC(N1)C(=O)OCC(C)(C)C2 has what viability, T/C?
Response line: 25.7

Prompt line: Looking for the measured viability, T/C of CC1(C)CCC(Nc2ncc(C(F)(F)F)c(-c3c[nH]c4c(P(C)(C)=O)c(C#N)ccc34)n2)CN1 (centres undefined) + CCn1c(-c2cccnc2C(C)OC)c2c3cc(ccc31)N1CCOC(CC(NC(=O)C(C(C)C)N(C)C(=O)C3(F)CCN(C(=O)C#CC(C)(C)N(C)C)CC3)C(=O)N3CCCC(N3)C(=O)OCC(C)(C)C2)C1 , can you help?
Response line: 83.2
